Parameter percent inhibition of viability: see the listing below.
- Test system: IMC-1 (IL-2 20 ng/mL)
- measurement.notes: percent inhibition of viability; higher = more inhibition
- protocol.conditions: 72 h; 10 nM
Give a bare numeral; the unit % is implied.

{"columns": ["compound", "percent inhibition of viability / %"],
 "data": [
  ["CN(C)/N=N/c1[nH]cnc1C(N)=O [Dacarbazine] (max concentration tested 10000 nM)", -3.53],
  ["CCN(c1cc(-c2ccc(CN3CCOCC3)cc2)cc(C(=O)NCc2c(C)cc(C)[nH]c2=O)c1C)C1CCOCC1 [Tazemetostat] (max concentration tested 10000 nM)", 0.55]
]}

Output percent inhibition of viability of COc1ccccc1S(=O)(=O)Nc1ccc2c(c1)CN(C)C(=O)N2 [PFI-1] (max concentration tested 10000 nM)
-6.11

Output percent inhibition of viability of CC(C)N(CCCNC(=O)Nc1ccc(C(C)(C)C)cc1)C[C@H]1O[C@@H](n2cc(Br)c3c(N)ncnc32)[C@H](O)[C@@H]1O [SGC0946] (max concentration tested 10000 nM)
-3.94

Output percent inhibition of viability of COc1cc2nccc(Oc3ccc(NC(=O)C4(C(=O)Nc5ccc(F)cc5)CC4)cc3)c2cc1OC [Cabozantinib] (max concentration tested 1000 nM)
1.98

Output percent inhibition of viability of CC(=O)[C@]1(O)Cc2c(O)c3c(c(O)c2[C@@H](O[C@H]2C[C@H](N)[C@H](O)[C@H](C)O2)C1)C(=O)c1ccccc1C3=O [Idarubicin] (max concentration tested 1000 nM)
65.8

====

- Tested on: NKL (IL-2 2.5 ng/mL)
- measurement.notes: percent inhibition of viability; higher = more inhibition
- protocol.conditions: 72 h; 100 nM
measurement.type: percent inhibition of viability (%)
Give a bare numeral; the unit % is implied.

// solved cases for percent inhibition of viability follow
{"columns": ["compound", "percent inhibition of viability / %"],
 "data": [
  ["CNC(=O)c1cc(Oc2ccc(NC(=O)Nc3ccc(Cl)c(C(F)(F)F)c3)cc2)ccn1 [Sorafenib] (max concentration tested 1000 nM)", -9.31],
  ["Cc1nc(Nc2ncc(C(=O)Nc3c(C)cccc3Cl)s2)cc(N2CCN(CCO)CC2)n1 [Dasatinib] (max concentration tested 1000 nM)", 30.8],
  ["CN(C)/N=N/c1[nH]cnc1C(N)=O [Dacarbazine] (max concentration tested 10000 nM)", -1.7],
  ["C[C@@H]1COC(Nc2ccc3ncnc(Nc4ccc(OCc5nccs5)c(Cl)c4)c3c2)=N1 [Varlitinib] (max concentration tested 10000 nM)", 8.83]
]}

Output percent inhibition of viability of CCC/C=C/C=C/C(=O)O[C@H]1/C(=C/C(=O)OC)C[C@H]2C[C@H]([C@@H](C)O)OC(=O)C[C@H](O)C[C@@H]3C[C@H](OC(C)=O)C(C)(C)[C@](O)(C[C@@H]4C/C(=C/C(=O)OC)C[C@H](/C=C/C(C)(C)[C@]1(O)O2)O4)O3 [Bryostatin 1] (max concentration tested 100 nM)
-81.5

Output percent inhibition of viability of CC(C)(C#N)c1cc(Cn2cncn2)cc(C(C)(C)C#N)c1 [Anastrozole] (max concentration tested 10000 nM)
1.02

====

Parameter percent inhibition of viability: see the listing below.
- Test system: SNK-6 (IL-2 2.5 ng/mL)
- measurement.notes: percent inhibition of viability; higher = more inhibition
- protocol.conditions: 72 h; 10 nM
Give a bare numeral; the unit % is implied.

{"columns": ["compound", "result.unit", "percent inhibition of viability"],
 "data": [
  ["CCCCCOC(=O)Nc1nc(=O)n([C@@H]2O[C@H](C)[C@@H](O)[C@H]2O)cc1F [Capecitabine] (max concentration tested 10000 nM)", "%", 11.5],
  ["Cc1cc(Nc2cc(N3CCN(C)CC3)nc(Sc3ccc(NC(=O)C4CC4)cc3)n2)n[nH]1 [Tozasertib] (max concentration tested 10000 nM)", "%", 3.63]
]}

Consider the record given below.
Output percent inhibition of viability of CCNC(=O)c1noc(-c2cc(C(C)C)c(O)cc2O)c1-c1ccc(CN2CCOCC2)cc1 [Luminespib] (max concentration tested 1000 nM)
35.8

====

- System: NK-YS (IL-2 2.5 ng/mL)
- measurement.notes: percent inhibition of viability; higher = more inhibition
- protocol.conditions: 72 h; 100 nM
measurement.type: percent inhibition of viability
Report the figure along with its unit, number first.

{"columns": ["compound", "percent inhibition of viability"],
 "data": [
  ["Cc1nc(N)sc1-c1ccnc(Nc2ccc(N3CCOCC3)cc2)n1 [CYC-116] (max concentration tested 10000 nM)", "6.79%"]
]}

Output percent inhibition of viability of Cc1ccc(NC(=O)c2ccc(CN3CCN(C)CC3)cc2)cc1Nc1nccc(-c2cccnc2)n1 [Imatinib] (max concentration tested 10000 nM)
-1.76%

Output percent inhibition of viability of O[C@H]1CC[C@H](Nc2ncc3nc(Nc4c(F)cc(F)cc4F)n([C@H]4CCOC4)c3n2)CC1 [Tanzisertib] (max concentration tested 10000 nM)
8.64%

Output percent inhibition of viability of C[C@@H](Oc1ccc2[nH]nc(/C=C/c3cnn(CCO)c3)c2c1)c1c(Cl)cncc1Cl (max concentration tested 1000 nM)
60.3%

Output percent inhibition of viability of CCc1cc(Nc2nccc(-c3c(-c4ccc(OC)c(C(=O)Nc5c(F)cccc5F)c4)nc4ccccn34)n2)c(OC)cc1N1CCC(N2CCN(S(C)(=O)=O)CC2)CC1 (max concentration tested 10000 nM)
2.55%

Output percent inhibition of viability of CN(C)C[C@@H]1CCn2cc(c3ccccc32)C2=C(C(=O)NC2=O)c2cn(c3ccccc23)CCO1 [Ruboxistaurin] (max concentration tested 10000 nM)
0.25%

Output percent inhibition of viability of C[C@@H]1COC(Nc2ccc3ncnc(Nc4ccc(OCc5nccs5)c(Cl)c4)c3c2)=N1 [Varlitinib] (max concentration tested 10000 nM)
2.34%

Output percent inhibition of viability of C#Cc1cccc(Nc2ncnc3cc(OCCOC)c(OCCOC)cc23)c1 [Erlotinib] (max concentration tested 10000 nM)
0.89%

Output percent inhibition of viability of CC(C)CC(=O)Nc1n[nH]c2c1CN(C(=O)C1CCN(C)CC1)C2(C)C (max concentration tested 10000 nM)
25.9%

====

- System: YT (IL-2 2.5 ng/mL)
- measurement.notes: percent inhibition of viability; higher = more inhibition
- protocol.conditions: 72 h; 1 nM
measurement.type: percent inhibition of viability
Report the figure along with its unit, number first.

// solved cases for percent inhibition of viability follow
{"columns": ["compound", "percent inhibition of viability"],
 "data": [
  ["CC[C@@H]1C(=O)N(C)c2cnc(Nc3ccc(C(=O)N[C@H]4CC[C@H](N5CCN(CC6CC6)CC5)CC4)cc3OC)nc2N1C(C)C [Volasertib] (max concentration tested 1000 nM)", "1.45%"],
  ["COc1ccc(COc2cc3oc(=O)c4cc(C(C)O)ccc4c3cc2OC)cc1 (stereo unspecified) [Palomid-529] (max concentration tested 10000 nM)", "-2.49%"],
  ["CC(O)(CS(=O)(=O)c1ccc(F)cc1)C(=O)Nc1ccc(C#N)c(C(F)(F)F)c1 (stereo unspecified) [Bicalutamide] (max concentration tested 10000 nM)", "3.05%"],
  ["C[C@@H]1COC(Nc2ccc3ncnc(Nc4ccc(OCc5nccs5)c(Cl)c4)c3c2)=N1 [Varlitinib] (max concentration tested 10000 nM)", "3.61%"]
]}

Output percent inhibition of viability of CN1CCc2c(c3ccccc3n2Cc2ccc(C(=O)NO)cc2)C1 [Tubastatin A] (max concentration tested 10000 nM)
-0.87%

Output percent inhibition of viability of Cc1ncc(-c2ccnc(Nc3ccc(S(C)(=O)=O)cc3)n2)n1C(C)C [AZD-5438] (max concentration tested 10000 nM)
-1.56%

====

- System: NKL (IL-2 2.5 ng/mL)
- measurement.notes: drug sensitivity score (DSS) (DSS units); higher = more sensitive; extreme values may be limits of the assay
- protocol.conditions: 72 h
measurement.type: drug sensitivity score
Lab note: record just the number, no unit beside it.

{"columns": ["molecule", "readout.value"],
 "data": [
  ["O=C1CCC(N2C(=O)c3ccccc3C2=O)C(=O)N1 (stereo not drawn) [Thalidomide] (max concentration tested 10000 nM)", 0.91],
  ["CO[C@@H]1[C@H](N(C)C(=O)c2ccccc2)C[C@H]2O[C@]1(C)n1c3ccccc3c3c4c(c5c6ccccc6n2c5c31)C(=O)NC4 [Midostaurin] (max concentration tested 10000 nM)", 18.5],
  ["CNNCc1ccc(C(=O)NC(C)C)cc1 [Procarbazine] (max concentration tested 10000 nM)", 0],
  ["c1ccc([C@H]2CN3CCSC3=N2)cc1 [Levamisole] (max concentration tested 10000 nM)", 0],
  ["Cc1nc(N)sc1-c1ccnc(Nc2ccc(N3CCOCC3)cc2)n1 [CYC-116] (max concentration tested 10000 nM)", 9.96],
  ["CNc1nc(-c2ccc3c(N)n[nH]c3c2)cc(N2C[C@@H](C(=O)NC3CCCCC3)CC[C@H]2C)n1 (max concentration tested 10000 nM)", 1.31]
]}

Output drug sensitivity score of Oc1c2ccccc2c2c3c(cccc13)N=N2 (max concentration tested 100000 nM)
10.3

Output drug sensitivity score of COc1ccc(-c2cc3c(C)nc(N)nc3n([C@H]3CC[C@H](OCCO)CC3)c2=O)cn1 (max concentration tested 10000 nM)
16.6

Output drug sensitivity score of CCCCC/C=C/C=C1/C(=O)C=C[C@@H]1C/C=C\CCCC(=O)O [15D-PGJ2] (max concentration tested 3000 nM)
0

Output drug sensitivity score of CC(C)(C)Cn1c(N)nc2ccc(-c3[nH]c(C(C)(C)C)nc3-c3ccc(F)cc3)nc21 [Ralimetinib] (max concentration tested 10000 nM)
6.44

Output drug sensitivity score of O=NN(CCCl)C(=O)NC1CCCCC1 [Lomustine] (max concentration tested 10000 nM)
0

Output drug sensitivity score of CCOc1cc2ncc(C#N)c(Nc3ccc(F)c(Cl)c3)c2cc1NC(=O)/C=C/CN(C)C [Pelitinib] (max concentration tested 2500 nM)
7.63

Output drug sensitivity score of Cn1cc(-c2ccc3nnc(Sc4ccc5ncccc5c4)n3n2)cn1 [SGX-523] (max concentration tested 5000 nM)
0
